- System: Protein cereblon/Tyrosine-protein kinase BTK (Homo sapiens), Q06187+Q96SW2 [C481S]
- ASSAY_METHOD_TEXT: Protac activity at BTK C481S mutant/CRBN in human TMD8 cells assessed as maximal BTK degradation measured after 1 hr by Western blot analysis relative to control
- Format: cell-based

MOLECULE	%max
O=C(CNc1ncnc2[nH]cc(C(=O)c3ccc(Oc4ccccc4)cc3Cl)c12)NCCOCCOCCOCCOCCOCCOCCNc1cccc2c1C(=O)N(C1CCC(=O)NC1=O)C2=O (stereo unspecified)	84.8%
O=C1CCC(N2C(=O)c3cccc(NCCOCCOCCOCCOCCNC(=O)N[C@H]4CC[C@@H](Nc5ncnc6[nH]cc(C(=O)c7ccc(Oc8ccccc8)cc7Cl)c56)CC4)c3C2=O)C(=O)N1 (stereo partly specified)	83.5%
O=C1CCC(N2C(=O)c3cccc(NCCOCCOCCOCCNC(=O)N[C@H]4CC[C@@H](Nc5ncnc6[nH]cc(C(=O)c7ccc(Oc8ccccc8)cc7Cl)c56)CC4)c3C2=O)C(=O)N1 (stereo partly specified)	84.3%
O=C1CCC(N2C(=O)c3cccc(NCCOCCOCCOCCOCCOCCNC(=O)N[C@H]4CC[C@@H](Nc5ncnc6[nH]cc(C(=O)c7ccc(Oc8ccccc8)cc7Cl)c56)CC4)c3C2=O)C(=O)N1 (stereo partly specified)	90.7%
O=C(CNc1ncnc2[nH]cc(C(=O)c3ccc(Oc4ccccc4)cc3Cl)c12)NCCOCCOCCOCCOCCNc1cccc2c1C(=O)N(C1CCC(=O)NC1=O)C2=O (stereo unspecified)	68.6%
O=C(CNc1ncnc2[nH]cc(C(=O)c3ccc(Oc4ccccc4)cc3Cl)c12)NCCOCCOCCOCCOCCOCCNc1cccc2c1C(=O)N(C1CCC(=O)NC1=O)C2=O (stereo unspecified)	88.4%

---

- TARGET_OR_TEST_SYSTEM: Tyrosine-protein kinase BTK (Homo sapiens)
- Sequence (Q06187 whole entry, the tested form may be a part): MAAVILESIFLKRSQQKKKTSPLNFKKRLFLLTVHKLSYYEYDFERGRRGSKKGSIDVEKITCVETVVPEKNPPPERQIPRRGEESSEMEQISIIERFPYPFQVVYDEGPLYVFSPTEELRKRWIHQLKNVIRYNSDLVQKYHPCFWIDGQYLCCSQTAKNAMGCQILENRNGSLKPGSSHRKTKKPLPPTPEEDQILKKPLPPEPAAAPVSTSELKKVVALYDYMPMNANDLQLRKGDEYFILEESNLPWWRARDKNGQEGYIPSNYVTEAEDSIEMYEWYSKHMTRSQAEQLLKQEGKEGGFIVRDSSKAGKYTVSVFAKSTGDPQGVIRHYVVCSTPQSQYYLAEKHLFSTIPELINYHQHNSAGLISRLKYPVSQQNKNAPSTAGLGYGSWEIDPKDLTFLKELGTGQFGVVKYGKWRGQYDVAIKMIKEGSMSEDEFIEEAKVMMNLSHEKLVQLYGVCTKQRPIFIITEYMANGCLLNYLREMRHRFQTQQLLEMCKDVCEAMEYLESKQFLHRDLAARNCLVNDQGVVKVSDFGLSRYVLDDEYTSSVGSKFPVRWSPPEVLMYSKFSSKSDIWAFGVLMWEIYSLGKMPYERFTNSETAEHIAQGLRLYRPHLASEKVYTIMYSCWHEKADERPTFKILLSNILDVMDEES
- ASSAY_METHOD_TEXT: Inhibition of full length N-terminal GST fusion tagged human BTK expressed in baculovirus expression system at 500 nM using FAM-P2 peptide solution as substrate incubated for 10 mins in presence of ATP by microplate reader assay
RECORDED_ENDPOINT: inhibition (%)

COMPOUND	TARGET_OR_TEST_SYSTEM	UNITS	EXPERIMENTAL_RESULT
O=C(CNc1ncnc2[nH]cc(C(=O)c3ccc(Oc4ccccc4)cc3Cl)c12)NCCOCCOCCOCCOCCOCCOCCOCCNc1cccc2c1C(=O)N(C1CCC(=O)NC1=O)C2=O (centres undefined)	Tyrosine-protein kinase BTK (Homo sapiens)	%	39
O=C(CNc1ncnc2[nH]cc(C(=O)c3ccc(Oc4ccccc4)cc3Cl)c12)NCCOCCOCCOCCOCCOCCOCCNc1cccc2c1C(=O)N(C1CCC(=O)NC1=O)C2=O (centres undefined)	Tyrosine-protein kinase BTK (Homo sapiens)	%	42.5
O=C1CCC(N2C(=O)c3cccc(NCCOCCOCCNC(=O)N[C@H]4CC[C@@H](Nc5ncnc6[nH]cc(C(=O)c7ccc(Oc8ccccc8)cc7Cl)c56)CC4)c3C2=O)C(=O)N1 (some centres undefined)	Tyrosine-protein kinase BTK (Homo sapiens)	%	97.4
CCOC(=O)CNc1ncnc2[nH]cc(C(=O)c3ccc(Oc4ccccc4)cc3Cl)c12	Tyrosine-protein kinase BTK (Homo sapiens)	%	10.9

---

pIC50 reference
- TARGET_OR_TEST_SYSTEM: Tyrosine-protein kinase BTK (Homo sapiens)
- ASSAY_METHOD_TEXT: Inhibition of full length N-terminal GST fusion tagged human BTK expressed in baculovirus expression system using FAM-P2 peptide solution as substrate incubated for 10 mins in presence of ATP by microplate reader assay
pIC50: −log10 of the molar value.

COMPOUND	TARGET_OR_TEST_SYSTEM	pIC50
O=C1CCC(N2C(=O)c3cccc(NCCOCCOCCNC(=O)N[C@H]4CC[C@@H](Nc5ncnc6[nH]cc(C(=O)c7ccc(Oc8ccccc8)cc7Cl)c56)CC4)c3C2=O)C(=O)N1 (stereo not given in full)	Tyrosine-protein kinase BTK (Homo sapiens)	7.81
CCOC(=O)CNc1ncnc2[nH]cc(C(=O)c3ccc(Oc4ccccc4)cc3Cl)c12	Tyrosine-protein kinase BTK (Homo sapiens)	5.22
O=C(CNc1ncnc2[nH]cc(C(=O)c3ccc(Oc4ccccc4)cc3Cl)c12)NCCOCCOCCOCCOCCOCCNc1cccc2c1C(=O)N(C1CCC(=O)NC1=O)C2=O (stereo not given)	Tyrosine-protein kinase BTK (Homo sapiens)	5.92
N[C@H]1CC[C@@H](Nc2ncnc3[nH]cc(C(=O)c4ccc(Oc5ccccc5)cc4Cl)c23)CC1	Tyrosine-protein kinase BTK (Homo sapiens)	8.37
CCNC(=O)N[C@H]1CC[C@@H](Nc2ncnc3[nH]cc(C(=O)c4ccc(Oc5ccccc5)cc4Cl)c23)CC1	Tyrosine-protein kinase BTK (Homo sapiens)	7.60
O=C(O)CNc1ncnc2[nH]cc(C(=O)c3ccc(Oc4ccccc4)cc3Cl)c12	Tyrosine-protein kinase BTK (Homo sapiens)	7.09
O=C(CNc1ncnc2[nH]cc(C(=O)c3ccc(Oc4ccccc4)cc3Cl)c12)NCCOCCOCCOCCOCCOCCOCCNc1cccc2c1C(=O)N(C1CCC(=O)NC1=O)C2=O (stereo not given)	Tyrosine-protein kinase BTK (Homo sapiens)	5.86
CCNC(=O)CNc1ncnc2[nH]cc(C(=O)c3ccc(Oc4ccccc4)cc3Cl)c12	Tyrosine-protein kinase BTK (Homo sapiens)	6.39
O=C1CCC(N2C(=O)c3cccc(NCCOCCOCCOCCOCCOCCNC(=O)N[C@H]4CC[C@@H](Nc5ncnc6[nH]cc(C(=O)c7ccc(Oc8ccccc8)cc7Cl)c56)CC4)c3C2=O)C(=O)N1 (stereo not given in full)	Tyrosine-protein kinase BTK (Homo sapiens)	7.25
O=C(CNc1ncnc2[nH]cc(C(=O)c3ccc(Oc4ccccc4)cc3Cl)c12)NCCOCCOCCOCCNc1cccc2c1C(=O)N(C1CCC(=O)NC1=O)C2=O (stereo not given)	Tyrosine-protein kinase BTK (Homo sapiens)	5.71
O=C1CCC(N2C(=O)c3cccc(NCCOCCOCCOCCOCCNC(=O)N[C@H]4CC[C@@H](Nc5ncnc6[nH]cc(C(=O)c7ccc(Oc8ccccc8)cc7Cl)c56)CC4)c3C2=O)C(=O)N1 (stereo not given in full)	Tyrosine-protein kinase BTK (Homo sapiens)	7.33
O=C(CNc1ncnc2[nH]cc(C(=O)c3ccc(Oc4ccccc4)cc3Cl)c12)NCCOCCOCCNc1cccc2c1C(=O)N(C1CCC(=O)NC1=O)C2=O (stereo not given)	Tyrosine-protein kinase BTK (Homo sapiens)	5.42
O=C1CCC(N2C(=O)c3cccc(NCCOCCOCCOCCNC(=O)N[C@H]4CC[C@@H](Nc5ncnc6[nH]cc(C(=O)c7ccc(Oc8ccccc8)cc7Cl)c56)CC4)c3C2=O)C(=O)N1 (stereo not given in full)	Tyrosine-protein kinase BTK (Homo sapiens)	7.65
O=C1CCC(N2C(=O)c3cccc(NCCCCNC(=O)N[C@H]4CC[C@@H](Nc5ncnc6[nH]cc(C(=O)c7ccc(Oc8ccccc8)cc7Cl)c56)CC4)c3C2=O)C(=O)N1 (stereo not given in full)	Tyrosine-protein kinase BTK (Homo sapiens)	7.64
O=C(CNc1ncnc2[nH]cc(C(=O)c3ccc(Oc4ccccc4)cc3Cl)c12)NCCOCCOCCOCCOCCNc1cccc2c1C(=O)N(C1CCC(=O)NC1=O)C2=O (stereo not given)	Tyrosine-protein kinase BTK (Homo sapiens)	5.66

Values were extracted from ChEMBL document CHEMBL5055646.
